The measurements presented in this section are drawn from paper PMC12371494.

Molecular target: GST-YTHDF2 (Homo sapiens, UniProt Q9Y5A9)
Construct: made in house
Sequence (Q9Y5A9 1-579): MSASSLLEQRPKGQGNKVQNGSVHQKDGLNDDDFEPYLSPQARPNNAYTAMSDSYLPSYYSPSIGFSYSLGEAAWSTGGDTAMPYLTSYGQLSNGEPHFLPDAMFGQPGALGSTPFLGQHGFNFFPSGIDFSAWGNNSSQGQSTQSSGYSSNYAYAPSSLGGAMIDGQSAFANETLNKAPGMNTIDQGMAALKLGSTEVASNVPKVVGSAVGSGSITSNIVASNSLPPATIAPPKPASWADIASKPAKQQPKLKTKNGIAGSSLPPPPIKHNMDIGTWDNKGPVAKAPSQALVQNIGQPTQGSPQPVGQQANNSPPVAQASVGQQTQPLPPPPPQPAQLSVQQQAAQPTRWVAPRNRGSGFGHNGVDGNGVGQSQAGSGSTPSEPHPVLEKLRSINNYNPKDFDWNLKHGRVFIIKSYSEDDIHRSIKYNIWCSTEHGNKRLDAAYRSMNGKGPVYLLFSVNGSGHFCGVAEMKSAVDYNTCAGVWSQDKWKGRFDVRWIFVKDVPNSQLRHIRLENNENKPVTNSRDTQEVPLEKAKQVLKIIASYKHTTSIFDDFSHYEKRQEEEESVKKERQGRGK
Assay: HTRF-based binding assay, competition with m6A-oligoRNA, DF2
Details: HTRF, 100 µM compound, normalized
Here the recorded Single-dose residual signal at 100 µM, DF2 is given for each entry.
Property: Single-dose residual signal at 100 µM, DF2 (%)

Smiles representation: Cc1c(C(=O)NCCCC(=O)O)sc2[nH]c(=S)[nH]c(=O)c12
Recorded number: 7

Smiles representation: COc1ccc(-c2csc3[nH]c(=S)[nH]c(=O)c23)cc1
Recorded number: 6

Smiles representation: Cc1c(C(=O)O)sc2[nH]c(=S)[nH]c(=O)c12
Recorded number: 9

Smiles representation: CCOC(=O)c1csc2[nH]c(=S)[nH]c(=O)c12
Recorded number: 8

###

molecular target: GST-YTHDF2 (Homo sapiens, UniProt Q9Y5A9); construct: made in house; test: HTRF-based binding assay, competition with m6A-oligoRNA, DF2; conditions: HTRF, 1 mM compound, relative to control; average of two technical replicates; * = interference with the assay
Here the recorded Residual signal at 1 mM concentration is given for each entry.
Property: Residual signal at 1 mM concentration

Compound: CCCc1nnc(NC(C)=O)s1
Assayed system: GST-YTHDF2 (Homo sapiens, UniProt Q9Y5A9)
Property: Residual signal at 1 mM concentration
Result: > 90%

Compound: Cc1nnc(N)n(N)c1=O
Assayed system: GST-YTHDF2 (Homo sapiens, UniProt Q9Y5A9)
Property: Residual signal at 1 mM concentration
Result: > 90%

Compound: CCc1cc(NC(=O)c2ccc(C)nc2)[nH]n1
Assayed system: GST-YTHDF2 (Homo sapiens, UniProt Q9Y5A9)
Property: Residual signal at 1 mM concentration
Result: > 90%

Compound: Cc1n[nH]c(N)c1C#N
Assayed system: GST-YTHDF2 (Homo sapiens, UniProt Q9Y5A9)
Property: Residual signal at 1 mM concentration
Result: > 90%

Compound: NC(=O)c1cccnc1NCC1CC1
Assayed system: GST-YTHDF2 (Homo sapiens, UniProt Q9Y5A9)
Property: Residual signal at 1 mM concentration
Result: > 90%

Compound: CC(O)c1nc2cc(-c3cc(F)cc(Cl)c3)ccc2[nH]1 (stereo not shown)
Assayed system: GST-YTHDF2 (Homo sapiens, UniProt Q9Y5A9)
Property: Residual signal at 1 mM concentration
Result: > 90%

Compound: O=c1cc(O)cc(C(F)(F)F)[nH]1
Assayed system: GST-YTHDF2 (Homo sapiens, UniProt Q9Y5A9)
Property: Residual signal at 1 mM concentration
Result: > 90%

Compound: OCCNc1ccc(Cl)nn1
Assayed system: GST-YTHDF2 (Homo sapiens, UniProt Q9Y5A9)
Property: Residual signal at 1 mM concentration
Result: > 90%

Compound: COc1cnc(Br)cc1O
Assayed system: GST-YTHDF2 (Homo sapiens, UniProt Q9Y5A9)
Property: Residual signal at 1 mM concentration
Result: > 90%

Compound: COc1cccc(-c2ccc3c(N)n[nH]c3n2)c1
Assayed system: GST-YTHDF2 (Homo sapiens, UniProt Q9Y5A9)
Property: Residual signal at 1 mM concentration
Result: > 90%

###

Here the recorded IC50 is given for each entry.
target: GST-YTHDF2 (Homo sapiens, UniProt Q9Y5A9); construct: made in house; test: HTRF-based binding assay, competition with m6A-oligoRNA, DF2; conditions: dose-response, competitor m6A-oligoRNA; read-out: DF2 IC50 (HTRF assay)

Smiles representation: Cc1c(C(=O)NCc2cccc(C(=O)O)c2)sc2[nH]c(=S)[nH]c(=O)c12
Assayed system: GST-YTHDF2 (Homo sapiens, UniProt Q9Y5A9)
IC50 (µM): 20
//
Smiles representation: O=C(O)c1ccc(Cc2cc3c(=O)[nH]c(=S)[nH]c3s2)cc1
Assayed system: GST-YTHDF2 (Homo sapiens, UniProt Q9Y5A9)
IC50 (µM): 29
//
Smiles representation: CCOC(=O)c1csc2[nH]c(=S)[nH]c(=O)c12
Assayed system: GST-YTHDF2 (Homo sapiens, UniProt Q9Y5A9)
IC50 (µM): 62
//
Smiles representation: O=c1[nH]c(=S)[nH]c2cnccc12
Assayed system: GST-YTHDF2 (Homo sapiens, UniProt Q9Y5A9)
IC50 (µM): 170
